biological target: T1, Aβ peptide (β-amyloid peptide; form and length not stated for the assay) (UniProt P05067 672-713); assay: BIAcore, Langmuir model (global analysis)
T1 construct: also called beta amyloid peptide
Please note: Kd exactly at 10 nM is Not fulfilled. Only values below 10 nM get Fulfilled.

Consider the following illustrative entries.
humanized 12A11 version 2.1 (antibody, V domains shown, Variable regions only; made like version 2; also called h12A11v2.1) VH: QVQLVESGGGVVQPGRSLRLSCAFSGFTLSTSGMSVGWIRQAPGKGLEWVAHIWWDDDKYYNPSLKSRFTISKDNSKNTLYLQMNSLRAEDTAVYYCARRTTTADYFAYWGQGTTVTVSS VL: DVVMTQSPLSLPVTPGEPASISCRSSQSIVHSNGNTYLEWYLQKPGQSPQLLIYKVSNRFSGVPDRFSGSGSGTDFTLKISRVEAEDVGVYYCFQSSHVPLTFGQGTKLEIK    Fulfilled
humanized 12A11 version 3 (antibody, V domains shown, Variable regions only; made like version 2; also called h12A11v3; humanized 12A11 v3) VH: QVQLVESGGGVVQPGRSLRLSCAFSGFTLSTSGMSVGWIRQAPGKGLEWVAHIWWDDDKYYNPSLKSRFTISRDNSKNTLYLQMNSLRAEDTAVYYCARRTTTADYFAYWGQGTTVTVSS VL: DVVMTQSPLSLPVTPGEPASISCRSSQSIVHSNGNTYLEWYLQKPGQSPQLLIYKVSNRFSGVPDRFSGSGSGTDFTLKISRVEAEDVGVYYCFQSSHVPLTFGQGTKLEIK    Not fulfilled
humanized 12A11 version 3.1 (antibody, V domains shown, Variable regions only tied to the tested antibody; also called h12A11v3.1; humanized 12A11 v3.1) VH: QVQLVESGGGVVQPGRSLRLSCAFSGFTLSTSGMSVGWIRQAPGKGLEWLAHIWWDDDKYYNPSLKSRFTISKDNSKNTLYLQMNSLRAEDTAVYYCARRTTTADYFAYWGQGTTVTVSS VL: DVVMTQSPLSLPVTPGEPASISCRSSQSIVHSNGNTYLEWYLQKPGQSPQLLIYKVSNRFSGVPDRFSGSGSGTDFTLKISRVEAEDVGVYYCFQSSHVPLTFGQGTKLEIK    Fulfilled
humanized 12A11 version 1 (antibody, V domains shown, Variable regions only tied to the tested antibody; also called h12A11v1; humanized 12A11 v1) VH: QVQLVESGGGVVQPGRSLRLSCAFSGFSLSTSGMSVGWIRQAPGKGLEWLAHIWWDDDKYYNPSLKSRLTISKDTSKNTVYLQMNSLRAEDTAVYYCARRTTTADYFAYWGQGTTVTVSS VL: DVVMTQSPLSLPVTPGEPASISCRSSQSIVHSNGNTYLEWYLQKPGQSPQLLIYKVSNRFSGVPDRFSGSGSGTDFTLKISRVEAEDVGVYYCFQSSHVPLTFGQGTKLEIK    Fulfilled

*Q* Say whether its Kd is strictly beneath 10 nM. Entry: humanized 12A11 version 2 (antibody, V domains shown, V region subcloned into heavy chain expression vector pCMV-Cgamma1 (human γ1); also called h12A11v2) VH: QVQLVESGGGVVQPGRSLRLSCAFSGFTLSTSGMSVGWIRQAPGKGLEWVAHIWWDDDKYYNPSLKSRFTISKDTSKNTLYLQMNSLRAEDTAVYYCARRTTTADYFAYWGQGTTVTVSS VL: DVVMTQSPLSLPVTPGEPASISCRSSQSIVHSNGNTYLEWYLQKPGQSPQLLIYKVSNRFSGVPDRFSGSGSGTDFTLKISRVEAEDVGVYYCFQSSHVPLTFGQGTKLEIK
*A* Not fulfilled
